Test system: Human dermal papilla cells
EXPERIMENT NOTES: Dermal papilla cell growth promoting activity (WST-1, spheroid culture), Test Example 5
Type: cell-based
RUN PARAMETERS: no concentration stated
PARAMETER MEASURED: growth of dermal papilla cells

C[C@@H]1C[C@@H]2O[C@H]2/C=C\C=C\C(=O)Cc2c(Cl)c(OC(=O)c3cccnc3)cc(OC(=O)c3cccnc3)c2C(=O)O1 [Compound 58]: promote the growth
C[C@@H]1C[C@@H]2O[C@H]2/C=C\C=C\C(=O)Cc2c(Cl)c(OCC(=O)Sc3ccccc3)cc(OCC(=O)Sc3ccccc3)c2C(=O)O1 [Compound 52]: promote the growth
C[C@@H]1C[C@@H]2O[C@H]2[C@H](Sc2ccccc2)/C=C/CC(=O)Cc2c(Cl)c(O)cc(O)c2C(=O)O1 [Compound 53]: promote the growth
CC1CC2OC2CC2=CC=C(Cc3c(Cl)c(O)cc(O)c3C(=O)O1)O2 (stereo not shown) [Compound 77]: promote the growth
